All figures here come from patent US20030004140A1.

Test system: K562 cells
assayNotes: MTT cytotoxicity assay, FN adhered vs suspension
Assay type: cell-based
condition: Homo sapiens, K562, 1.5 h, read-out: Suspension mean IC50
Method: Plastic 96-well Immunosorp plates (Nunc, Denmark) are coated with 50 μl (40 μg/ml) FN (Life Technologies) or BSA overnight. Cells are washed once and resuspended in serum-free RPMI 1640, then 2×10^4 (K562) cells are added to each FN coated well. 8×10^3 (K562) cells are added to BSA coated wells. […] Dye is solubilized with 100 μl DMSO and plates are read at 540 nm on an automated microtiter plate reader. […] IC50 values are calculated by linear regression analysis of percent survival vs. drug concentration. […]
endpoint: pIC50
Remember, pIC50 is on a log scale: it is -log10 of the molar concentration.

Ask: Supply recorded pIC50 for N[C@@H](Cc1ccc(N(CCCl)CCCl)cc1)C(=O)O [LPAM, L-phenylalanine nitrogen mustard] here.
Reply: 4.53

###

Tested on: 8226/S myeloma cells
assayNotes: MTT cytotoxicity assay, FN-adhered vs BSA/non-adhered cells
Type: cell-based, human
condition: Homo sapiens; FN-adhered 24 hours prior to one hour drug exposure; representative experiment FIG. 1; read-out: IC50, adhered cells
endpoint: pIC50
# log scale: pIC50 equals minus log10 of the concentration in mol/L

Ask: Please look at this compound and report its pIC50: COc1cccc2c1C(=O)c1c(O)c3c(c(O)c1C2=O)C[C@@](O)(C(=O)CO)C[C@@H]3O[C@H]1C[C@H](N)[C@H](O)[C@H](C)O1 [doxorubicin]
Reply: 6.31

###

Tested on: 8226/S myeloma cells
assayNotes: MTT cytotoxicity assay, FN-adhered vs BSA/non-adhered cells
Format: cell-based, human
condition: Homo sapiens, 1 h; grown in suspension, one hour drug exposure; representative experiment FIG. 1; read-out: IC50, non-adhered cells
endpoint: pIC50
The read-out pIC50 is expressed as -log10 of concentration in moles per litre.

Ask: Respond only with pIC50 recorded for COc1cccc2c1C(=O)c1c(O)c3c(c(O)c1C2=O)C[C@@](O)(C(=O)CO)C[C@@H]3O[C@H]1C[C@H](N)[C@H](O)[C@H](C)O1 [doxorubicin]
Reply: 7.07
